Data provenance is the supplement of paper PMC9170038.

Tested on: MS2 coat protein
TEST NAME: apparent KD of MS2 coat protein; higher = weaker reporter binding
RUN CONDITIONS: Eterna round: R107; input ligand: theophylline 20 uM
Answer each item with its documented apparent KD of MS2 coat protein.
Quick note: give the figure in nM, leave out the unit.

Q. Answer with the recorded apparent KD of MS2 coat protein for the sequence listed here: UGUAUGGACUGAAGGAGCGCCUCAAAAUAACUUGAGGAACACCCAAGUAAGGCGAAAGCCGGGCAGGUAGGUCGCAGUCCAUACU [ArgBX 3]
A. 23

Q. Answer with the recorded apparent KD of MS2 coat protein for the sequence listed here: `UGUAUGGACUGAAGGAGCGGGAAAAUAACUUGAGGAUCACCCAGGUAAAAGGCGAAAGCCACCCAGGUAGGUCGCAGUCCAUACU`
A. 30.1

Q. Answer with the recorded apparent KD of MS2 coat protein for the sequence listed here: `CACGGAUGAGUGGAUCACCCUCAUAAUAACCGAGGACCGGUACGGCCGCCACUCGAAAACCGUGACCUGUACGAAAAGUGCAGGA`
A. 486

Q. Answer with the recorded apparent KD of MS2 coat protein for the sequence listed here: AAGUGGCACGGAAGGAGCGAGUUUACCUAUUACAUGAGGAUCACCCAUGUGUAUAAUGGGACUCAGGUAGGUCGCCGUUGUCACU [Same State Arginine B GF 25]
A. 49

Q. Answer with the recorded apparent KD of MS2 coat protein for the sequence listed here: AGGCUUCGCAUAGGAAAACUAUGUGAAGCCCGAGGACCGGUACGGCCGCCACUCGUCCUCAACAUGAGGAUCACCCAUGUAAUAA [Mat - Exclusion - Trytophan A - D1]
A. 41.6

Q. Answer with the recorded apparent KD of MS2 coat protein for the sequence listed here: GUCAGUGACUGAAGGAGCGACAUGAGGAUCACCCAUGUCUCCCGUUAUGGGAGUUCCUUAGGUCAGGUAGGUCGCAGUCACUGAC [#1 Exclusion - Arginine B Attempt #29 (Inspired by Omei)]
A. 163

Q. Answer with the recorded apparent KD of MS2 coat protein for the sequence listed here: GUUUAGAGCUCGGCCGCCACUCAAACAUGAGGAUCACCCAUGUAAAACAUGAGGAUCACCCAUGUGAGGACCGGGAGAAAUAAGA [Exclusion Tryptophan B GF7]
A. 370

Q. Answer with the recorded apparent KD of MS2 coat protein for the sequence listed here: AGCAGCUCGAAAGAGUUGCACUCAUGUGAAGGAGCGCCCGUUAGGGCAGGUAGGUCGCACAUGAGGAUCACCCAUGUACCUUCUA [ArgAX 20 #OpenEnded #MS2Late]
A. 182

Q. Answer with the recorded apparent KD of MS2 coat protein for the sequence listed here: CCAUAAGUACCGGUCCUCAGAUCCUCAUGACGAGGACCGGUACGGCCGCCACUCGAAACAUGAGGAUCACCCAUGUAAUAAUAUU [Brourdmod14]
A. 45.4

Q. Answer with the recorded apparent KD of MS2 coat protein for the sequence listed here: GAGCUGAUGUAGAAAUUUUAUUUAUGAGAUACCAGUACAGAAAUGUACCCUUGGCAGCUCAUUUUUACAUGAGGAUCACCCAUGU [Ex Theophylline A 14]
A. 12.8

Q. Answer with the recorded apparent KD of MS2 coat protein for the sequence listed here: ACACCAUACAUGAGGAUCACCCAUGUUACACGAGGACCGGUACGGCCGCCACUCGAAUUCAGGAAACCUCGGAUAAUAUUGUGAA [JR_SS-TryptA_Sub001]
A. 50.1

Q. Answer with the recorded apparent KD of MS2 coat protein for the sequence listed here: AUACCUAAUGUUACAUUUACCUUAUCAGAUACCAGACUUUACGUUGUCCCUUGGCAGCUGUAUCACAUGAGGAUCACCCAUGUUG [JR_SSTheophyA_Sub010]
A. 19.2

Q. Answer with the recorded apparent KD of MS2 coat protein for the sequence listed here: UAGACGGCCGGAAGGAGCGGUACAUGAGGAUCACCCAUGUACUUCUGGGCAUCCGUAGUGUGCCAGGUAGGUCGCCGGUUGCGGG [XArg-B20]
A. 32.4

Q. Answer with the recorded apparent KD of MS2 coat protein for the sequence listed here: `UGUAUGGACUGAAGGAGCGGGUUGAUAAUCUGAGGAUCACCCAGGUAAAAGGCGAAAGCCGCCCAGGUAGGUCGCAGUCCAUACU`
A. 36.1

Q. Answer with the recorded apparent KD of MS2 coat protein for the sequence listed here: ACAUGAGGAUCACCCAUGUACUGGAUCUAACGAGGACCGGUACGGCCGCCACUCGAAGAUAGGACUAUGGAAACAUAGCUUAUCA [Design 1]
A. 19.9

Q. Answer with the recorded apparent KD of MS2 coat protein for the sequence listed here: AUGCAGGGCAACAGCCACUGUCACGGUGAUACCAGUACCCGUGCGUACCCUUGGCAGCAUCGUGGUACAUGAGGAUCACCCAUGU [Enatleceed]
A. 503

Q. Answer with the recorded apparent KD of MS2 coat protein for the sequence listed here: AGUCUUGAACGAAGGAGCGACGUACAUGAGGAUCACCCAUGUGGAGCGAAAGCUCCGUAACGUCAGGUAGGUCGCGUUCGAGACA [Omei Arginine B SS A v3]
A. 15.6

====

Test system: MS2 coat protein
TEST NAME: apparent KD of MS2 coat protein; higher = weaker reporter binding
RUN CONDITIONS: Eterna round: R107; input ligand: theophylline 2 mM
EXPERIMENTAL ENDPOINT: apparent KD of MS2 coat protein (µM)
Quick note: give the figure in µM, leave out the unit.

Q. Answer with the recorded apparent KD of MS2 coat protein for the sequence listed here: UAAUAAGUACCGGUCCUCAGAUCCUCAUGACGAGGACCGGUACGGCCGCCACUCGAAACAUGAGGAUCACCCAUGUAAUAAUAAC [Brourdmod03]
A. 0.0452

Q. Answer with the recorded apparent KD of MS2 coat protein for the sequence listed here: AGUUUGGACUCGGCCGCCACUCGUGAUGCUUUGGCACAUGAGGAUCACCCAUGUGGUCGGCCUUAGAGGACCGGGAGUACCAGCC [Edesceso]
A. 0.343

Q. Answer with the recorded apparent KD of MS2 coat protein for the sequence listed here: CUAUCCUUGCCGGAUGAAGGACACUGAGAAGGAGCGCGGUAAUCCGCAGGUAGGUCGCUCAGGAGUACAUGAGGAUCACCCAUGU [Xeonrave]
A. 0.0237

====

Test system: MS2 coat protein
TEST NAME: apparent KD of MS2 coat protein; designed switch direction (-1 OFF switch, 1 ON switch): 1; higher = weaker reporter binding
RUN CONDITIONS: input ligand: microRNA oligo, concentration not stated
Answer each item with its documented apparent KD of MS2 coat protein.
Quick note: give the figure in nM, leave out the unit.

Q. Give measured apparent KD of MS2 coat protein for GGUGCGAAUAAAGCCUACAUGAGGAUCACCCAUGUAUGUAGGCAGGAUAUCGUAUGCAAAGCAUACGAGAAGGGCUGUCGCACC [Mat - Same State NG 3 - JL Mod - D47] (Eterna round: R96, puzzle: Same State NG 3) (MS2 coat protein).
A. 56.9

Q. Give measured apparent KD of MS2 coat protein for GUUACAUGAGGAUCACCCAUGUAUGUGUGGGAGUAAGUGUCUUAGGAUAUCUAGUAUUCAAUUUAAGAGAAGGAAGAUUGUUGU [JMF's solution 58] (Eterna round: R96, puzzle: Same State NG 3) (MS2 coat protein).
A. 64.2

Q. Give measured apparent KD of MS2 coat protein for GGUGGGUUACUACCAACACAUGAGGAUCACCCAUGUUUUGGGAAGGAUAUGGUACCUAUUUGGUACCAGAAGGUCCAGUUGGUG [salish99_SSNG3_r04_703] (Eterna round: R96, puzzle: Same State NG 3) (MS2 coat protein).
A. 79.8

Q. Give measured apparent KD of MS2 coat protein for AAAAGAAACAUGUACCUGAGUACAUGAAAACAUGAGGAUCACCCAUGUAACAAGCUGGGUGCUCGUCUUAUAAGAAA [JL pocket 1] (Eterna round: R96, puzzle: Sensor for hsa-mir-208a) (MS2 coat protein).
A. 22.3

Q. Give measured apparent KD of MS2 coat protein for GCUCGUAUGAUGACCGACAUGAGGAUCACCCAUGUGUGUCGGUAGGAUAUCUAUAUUAAGGAUAUAGAGAAGGGCCGAACGAGC [SameState NG3 #17] (Eterna round: R96, puzzle: Same State NG 3) (MS2 coat protein).
A. 62.9

====

Tested on: K4 kissing-loop RNA reporter;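 note: bound reporter read as fluorescence of individual clusters on recovered sequencing chips by microscopy, with normalized cluster intensities fitted with a binding model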
TEST NAME: apparent KD of K4 kissing-loop reporter; higher = weaker reporter binding
RUN CONDITIONS: Eterna round: R107; input ligand: tryptophan 2.4 mM
Criterion: apparent KD of K4 kissing-loop reporter meeting or surpassing 100 nM. Met: YES. Not met: NO.

Q. Quick check, apparent KD of K4 kissing-loop reporter >= 100 nM? GGAUAGGACAUAGGAUAUGGGCUAGGCAAGAAUAACUUGUCUAGCAAAUCCAUGAGGAGUGAUGUUCCAGAAGGAUGUCCUAUCG [FmnBX 1 U11+A75]
A. NO

Q. Quick check, apparent KD of K4 kissing-loop reporter >= 100 nM? CGUAGAUACUGAGGAUAUCAGAAAUCUGAUAUCAUCAGAGGUCUGAGUGAUGUUCAGAUGCGACUCUGAGAAGGCAGUAGGAGUC [FMN B Ex t2]
A. YES

Q. Quick check, apparent KD of K4 kissing-loop reporter >= 100 nM? AGCUCAGCGUGACUCGAUAAGAGUCACAAACGAGGACCGGUACGGCCGCCACUCGAAAUAAAGGGAGUGAUGUUCUCGCUGAGCA [#SwitchBubble 4 #StaticStem #K4Late]
A. YES

Q. Quick check, apparent KD of K4 kissing-loop reporter >= 100 nM? AGGUGAGAGUGAAGGAGCGAUCGCGCCAGUGAUGUUGGUGAGCAUGACGAAAGUCAUGCCGAUCAGGUAGGUCGCACUCUUACUC [Omei KL Arginine B SS B v3]
A. YES

Q. Quick check, apparent KD of K4 kissing-loop reporter >= 100 nM? GCGCGUCAUGUCAGCGGUGACACUGUCGAUACCAGUGCCGCAAGGCGCCCUUGGCAGCGACGUGCUGGAGUGAUGUUCCAGCGUU [#2 Exclusion - Theophylline A Attempt #29 (HarryS)]
A. YES

Q. Quick check, apparent KD of K4 kissing-loop reporter >= 100 nM? AGAUUCGACACGGCCGCCACUCGUGGUGGAUUAUCCUAUGUAAGACAUGAGUGAUGUUCAUGUACGAGGACCGGGUGUUGAGUCU [KL-XTryp-B5 #analogue]
A. YES

Q. Quick check, apparent KD of K4 kissing-loop reporter >= 100 nM? AAUUCUUAUCUUAGUAGAUUUCUAAUUAAACGAGGACCGGUACGGCCGCCACUCGGUUAUGAGUGAUGUUCAUGGAAUUACAUAA [JR_SSTryptoA_Sub018]
A. YES

Q. Quick check, apparent KD of K4 kissing-loop reporter >= 100 nM? UGGGAUGUUAAAGGAUAUAGCAGGUGAUAUAAGAAAGUGAGUGAUGUUUAUGUAGAUGAUGAUAUGUUAGAAGGUUAACAAAACG [abcdefghi]
A. YES

Q. Quick check, apparent KD of K4 kissing-loop reporter >= 100 nM? AGAUGGCAGUGAUGUUGCUGUUGGAGGGAUAAGGAUAUUGGCUAAACAAGAAGGUAUCGGCGGCAUUGAGGAAUGGGAGGCGCCU [theeternabot_exclusion_KL_FMN_A_7]
A. YES

Q. Quick check, apparent KD of K4 kissing-loop reporter >= 100 nM? GUAUUGUGAAUGGAUACCAGACACCCGAGUGAUGUUCGGAGCAGAGUGAUGUUCUAAUAAGUCCCUUGGCAGCCGGAAGCAGCCG [Same State Theophylline B GF 3]
A. YES

Q. Quick check, apparent KD of K4 kissing-loop reporter >= 100 nM? AUCGUUGUCUGAGGAUAUCGGUUAUCUGUAGUGAUGUUACAGUAUAUUGAUAUUAAAGAUUCUAUUCGAGAAGGCAGACAACGUA [JR_Nu3_ExcFMNB_Sub023]
A. NO
